The origin of these recorded values is the supplement of paper PMC10567573.

B1: FBXO3 (parent)
chain: FIDTYSDVGRYIDHYAAIKKAWDD

variants of: B1; assay: protein stability index of a GFP-peptide fusion (GPS, HEK-293T) (PSI 1-6); higher = more stable; conditions: c terminus: a fixed tail appended;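 also: lentivirally expressed fusions sorted by FACS into six bins by GFP to DsRed ratio, PSI derived from sequencing read proportions per bin multiplied by bin number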
measurement-type: protein stability index

Illustrative cases are given below, each with its answer.
- residue-codes: "FIDTYSDVGRYIDLYAAIKKAWDD [H14L]"
  protein stability index: 1.66
- residue-codes: "FIDTYSDVGRYIDHLAAIKKAWDD [Y15L]"
  protein stability index: 1.53
- residue-codes: "FLDTYSDVGRYIDHYAAIKKAWDD [I2L]"
  protein stability index: 2.39
- residue-codes: "FADTYSDVGRYIDHYAAIKKAWDD [I2A]"
  protein stability index: 2.45
- residue-codes: "FIDTYSDVGRNIDHYAAIKKAWDD [Y11N]"
  protein stability index: 2.25
- residue-codes: "FIDTCSDVGRYIDHYAAIKKAWDD [Y5C]"
  protein stability index: 2.84

Output protein stability index of FIDTYSDVGRYIRHYAAIKKAWDD [D13R]
1.3

Provide measured protein stability index value, entry: FIDTTSDVGRYIDHYAAIKKAWDD [Y5T]
2.23

Could you please provide reported protein stability index for FIDTYSDVGRYIDHYAAIKKAWDC [D24C] ? Thanks!
1.32

Tell me measured protein stability index for FIDTYSDVGRPIDHYAAIKKAWDD [Y11P] please.
2.24

For the variant FIDTYSDVGRYGDHYAAIKKAWDD [I12G] , report protein stability index.
2.19

Report measured protein stability index; entry is FIDTYSDVGRYIDHYAAHKKAWDD [I18H]
2.39

Could you please provide reported protein stability index for FIDTYSDVGRYQDHYAAIKKAWDD [I12Q] ? Thanks!
2.3

Supply measured protein stability index of FIDTYSDVGRYIDHYAAITKAWDD [K19T] in your reply.
2.38
